Reference source: paper PMC8809517

- target-desc: T1, GFP-9S library array, motif 4 ND N98E;D124K (synthetic construct, N98E;D124K)
- T1 chain: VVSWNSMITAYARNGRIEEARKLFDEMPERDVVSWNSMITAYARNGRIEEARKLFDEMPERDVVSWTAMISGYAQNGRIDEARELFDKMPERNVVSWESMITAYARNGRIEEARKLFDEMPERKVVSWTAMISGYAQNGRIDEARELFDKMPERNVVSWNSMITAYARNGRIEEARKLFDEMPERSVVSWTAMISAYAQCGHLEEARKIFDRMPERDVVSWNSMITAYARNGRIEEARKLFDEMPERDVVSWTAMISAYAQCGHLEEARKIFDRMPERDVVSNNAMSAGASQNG
- method: high-throughput RNA pulldown from lysate on Ni-NTA beads; HRP: 50 mM Tris pH 8, 150 mM NaCl, 1 mM beta-mercaptoethanol, 50 ug/ml BSA, 3 ug/ml yeast RNA, 0.5% heparin; ITC and FP: Tris pH 8, 200 mM KCl, 5% glycerol; MST: 50 mM Tris pH 8, 200 mM NaCl, 1 mM DTT, BSA, heparin, 0.05% Tween 20
- measurement-conditions: tags: N-terminal His-eGFP; label: 5' Cy5
Provide the reported pKd of each item.
Recall that pKd is obtained by taking minus log10 of the concentration measured in molar.

(Q) I am curious: what pKd value has been reported for AUUACACGUGA (ssRNA) [Cy5-rpoA] ?
(A) 6.91

(Q) Which pKd value is on record for AUUAGACGUGA (ssRNA) [Cy5-rpoA-G] ?
(A) 6.81
